The values you see were collected from paper PMC4869678.

Field: solubility. Provide a value for each of the molecules that follow.
protocol details: Aqueous solubility by nephelometry
Assay type: physicochemical
test conditions: aqueous medium (not further specified), kinetic from dmso stock, measured by nephelometry
# number then unit; no other words

stdin: Give the reported value of solubility for this record: OC1CCC=CCC2OC1C1CCCCC21 (stereo not shown)
stdout: 500 µM

stdin: // fetch solubility given entry CC1(C)CCC(=O)OCC2OC1C1CCCCC21 (stereo not shown)
stdout: 550 µM

stdin: Identify measured solubility associated with C=CCC1OC(COC(=O)C=CC)C2CC=CCC12 (stereo not shown)
stdout: 500 µM

stdin: Give a short answer stating reported solubility for O=C1CCC/C=C/C[C@@H]2O[C@H](CO1)[C@H]1CCCC[C@H]12 .
stdout: 550 µM
